Sequence of the target: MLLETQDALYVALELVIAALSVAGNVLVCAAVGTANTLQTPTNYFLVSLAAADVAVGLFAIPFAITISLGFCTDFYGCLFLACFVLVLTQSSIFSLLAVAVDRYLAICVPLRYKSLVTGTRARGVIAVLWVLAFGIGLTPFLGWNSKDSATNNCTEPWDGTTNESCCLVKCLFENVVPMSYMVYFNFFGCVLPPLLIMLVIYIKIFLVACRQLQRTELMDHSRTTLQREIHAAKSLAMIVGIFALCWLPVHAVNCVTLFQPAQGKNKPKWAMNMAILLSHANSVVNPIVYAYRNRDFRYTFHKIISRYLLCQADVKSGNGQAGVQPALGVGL
observation-type: Ki (nM)

CCn1c(=O)c2[nH]c(-c3ccc(OCC(=O)Nc4ccccc4)cc3)nc2n(CCCOC)c1=O :: 3.02

(1) CCn1c(=O)c2[nH]c(-c3ccc(-c4ccccc4)cc3)nc2n(CCCOC)c1=O
(2) CCn1c(=O)c2[nH]c(-c3ccc(OCC(=O)Nc4ccc(C(C)=O)cc4)cc3)nc2n(CCCOC)c1=O
Between 1 and 2 , whose recorded Ki is greater? Indicate your choice by writing its label.
1

(a) CCn1c(=O)c2[nH]c(-c3ccc(OCC(=O)Nc4ccc(O)cc4)cc3)nc2n(CCCOC)c1=O
(b) CCn1c(=O)c2[nH]c(-c3cccs3)nc2n(CCCOC)c1=O
(c) CCCn1c(=O)c2[nH]c(-c3ccccc3)nc2n(CCCOC)c1=O
(d) CCn1c(=O)c2[nH]c(-c3ccc(OCC(=O)Nc4ccc(C#N)cc4)cc3)nc2n(CCCOC)c1=O
(e) CCn1c(=O)c2[nH]c(-c3ccc(OCC(=O)NC4CCCC4)cc3)nc2n(CCCOC)c1=O
Hey, can you sort those molecules up there by Ki, smallest first? List the labels in the requested order.
d, a, e, b, c

(a) CCn1c(=O)c2[nH]c(-c3ccc(OCC(=O)Nc4ccccn4)cc3)nc2n(CCCOC)c1=O
(b) CCSCCn1c(=O)c2[nH]c(-c3ccco3)nc2n(CCCOC)c1=O
// select label with min value of measured Ki from [ a , b ] Please reply using the label of the selected record.
a
